# measurementProtocol: in vivo
# assayConditions: rat, Percent Bioavailability (mean ± SD) with Palmitoylcarnitine-Cl
valueKind: bioavailability (%)
Number only, in %; omit the unit.

In: Record request: bioavailability value, item CC(C)[C@@H]1NC(=O)[C@H](CCCCN)NC(=O)[C@@H](Cc2c[nH]c3ccccc23)NC(=O)[C@H](Cc2ccc(O)cc2)NC(=O)[C@H](C)N(C)C(=O)[C@H](Cc2ccccc2)NC1=O [#-363,586]
Out: 100

###

# measurementProtocol: in vivo
# assayConditions: rat, Percent Bioavailability (mean ± SD) Control
valueKind: bioavailability (%)
Number only, in %; omit the unit.

In: Record request: bioavailability value, item `CC(C)[C@@H]1NC(=O)[C@H](CCCCN)NC(=O)[C@@H](Cc2c[nH]c3ccccc23)NC(=O)[C@H](Cc2ccc(O)cc2)NC(=O)[C@H](C)N(C)C(=O)[C@H](Cc2ccccc2)NC1=O`
Out: 7
